Origin of the recorded values: patent US7781591B2

Biological target: human PKCθ full length enzyme (Homo sapiens, UniProt Q04759)
Construct: human PKCθ full length enzyme (Panvera Cat# P2996); purchased Panvera P2996
Sequence (Q04759 whole entry): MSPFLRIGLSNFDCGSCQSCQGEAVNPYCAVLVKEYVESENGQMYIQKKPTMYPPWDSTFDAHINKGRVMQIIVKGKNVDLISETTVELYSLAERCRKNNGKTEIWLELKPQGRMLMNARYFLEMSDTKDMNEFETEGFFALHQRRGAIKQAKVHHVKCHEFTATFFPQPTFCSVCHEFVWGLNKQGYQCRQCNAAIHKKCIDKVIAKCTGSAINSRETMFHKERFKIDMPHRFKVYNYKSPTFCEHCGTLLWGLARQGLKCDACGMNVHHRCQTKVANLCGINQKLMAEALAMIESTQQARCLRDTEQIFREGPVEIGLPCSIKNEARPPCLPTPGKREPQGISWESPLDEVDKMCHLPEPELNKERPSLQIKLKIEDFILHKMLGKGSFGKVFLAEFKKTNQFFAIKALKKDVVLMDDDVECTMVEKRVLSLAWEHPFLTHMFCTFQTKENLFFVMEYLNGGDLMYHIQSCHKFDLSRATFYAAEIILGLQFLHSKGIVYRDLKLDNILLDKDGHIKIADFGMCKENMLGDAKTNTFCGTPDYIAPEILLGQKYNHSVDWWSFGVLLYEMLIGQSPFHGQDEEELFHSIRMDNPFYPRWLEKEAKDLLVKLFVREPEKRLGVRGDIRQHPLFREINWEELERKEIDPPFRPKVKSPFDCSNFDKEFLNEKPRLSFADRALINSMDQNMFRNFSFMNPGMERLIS
Assay: PKCθ IMAP assay (fluorescence polarization)
Format: biochemical
Conditions: human PKCθ full length enzyme, IMAP; average value; read-out: IC50 PKCθ IMAP
measure.name: IC50 (µM)

- Cc1c(Nc2c(C#N)cncc2-c2cc(C=O)co2)ccc2[nH]ccc12: 0.008
- COc1ccc(-c2cncc(C#N)c2N(C)c2ccc3[nH]ccc3c2)cc1OC: 0.27
- COCCNC(=O)c1ccc(-c2cncc(C#N)c2Nc2cccc3[nH]ccc23)cc1: 0.13
- Cc1cc2[nH]ccc2cc1Nc1c(C#N)cncc1-c1cc2ccccc2o1: 0.055

###

Listing of recorded IC50 by entry.
Target: human PKCθ full length enzyme (Homo sapiens)
Construct: human PKCθ full length enzyme (Panvera Cat# P2996); purchased Panvera P2996
Assay: PKCθ IMAP assay (fluorescence polarization)
Format: biochemical
Settings: human PKCθ full length enzyme, IMAP; average value; read-out: IC50 PKCθ IMAP
measure.name: IC50

• COc1ccc(-c2cncc(C#N)c2Nc2ccc3[nH]ncc3c2)cc1OC [Compound 379] = 2.53 µM
• Cc1c(Nc2c(C#N)cncc2-c2cccc(-c3ccc(C(=O)NCCCCO)cc3)c2)ccc2[nH]ccc12 [Compound 309] = 0.12 µM
• COc1ccc(-c2cncc(C#N)c2Nc2ccc3c(c2)OCO3)cc1OC [Compound 111] = 0.58 µM
• N#Cc1cncc(-c2cccc(-c3cccs3)c2)c1Nc1ccc2[nH]ccc2c1 [Compound 136] = 0.13 µM
• COc1ccc(-c2cncc(C#N)c2Nc2ccc3[nH]ccc3c2)cc1OCCNCCc1ccccn1 [Compound 251] = 0.04 µM
• Cc1c(Nc2c(C#N)cncc2-c2cc3ccccc3s2)ccc2[nH]ccc12 [Compound 514] = 0.023 µM
• N#Cc1cncc(-c2cccc(Br)c2)c1Nc1cccc2[nH]ccc12 [Compound 114] = 0.002 µM
• COc1ccc(-c2cncc(C#N)c2N[C@H]2CC[C@@H](N)CC2)cc1OC [Compound 446] = 4.88 µM

###

Listing of recorded pIC50 by entry.
Target: human PKCθ full length enzyme (Homo sapiens)
Construct: human PKCθ full length enzyme (Panvera Cat# P2996); purchased Panvera P2996
Experiment: PKCθ IMAP assay (fluorescence polarization)
Type: biochemical
Conditions: human PKCθ full length enzyme, IMAP; average value; read-out: IC50 PKCθ IMAP
pIC50: −log10 of the molar value.
measure.name: pIC50

• Cc1c(Nc2c(C#N)cncc2-c2ccc(CN(C)C)cc2)ccc2[nH]ccc12 = 8.10
• Cc1c(Nc2c(C#N)cncc2-c2cccnc2Cl)ccc2[nH]ccc12 = 6.81
• COc1cc(-c2cncc(C#N)c2Nc2ccc3[nH]ccc3c2C)ccc1OCCNCCCc1ccccc1 = 8.10
• Cc1cc2[nH]ccc2cc1Nc1c(C#N)cncc1-c1cc2cc(CN3CCN(C)CC3)ccc2o1 = 8.15
• N#Cc1cncc(-c2cccc(CN)c2)c1Nc1cccc2[nH]ccc12 = 7.70
• N#Cc1cncc(-c2cc3cc(CNCc4ccccn4)ccc3s2)c1Nc1cccc2[nH]ccc12 = 8.52
• CN1CCN(Cc2ccc(-c3cccc(-c4cncc(C#N)c4Nc4ccc5[nH]ccc5c4)c3)s2)CC1 = 6.59
• N#Cc1cncc(-c2cc3cc(CN4CCC(CO)CC4)ccc3s2)c1Nc1cccc2[nH]ccc12 = 8.40

###

Target: human PKCθ full length enzyme (Homo sapiens)
Construct: human PKCθ full length enzyme (Panvera Cat# P2996); purchased Panvera P2996
Experiment: PKCθ IMAP assay (fluorescence polarization)
Format: biochemical
Conditions: human PKCθ full length enzyme, IMAP; average value; read-out: IC50 PKCθ IMAP
Procedure: The reaction buffer was prepared by diluting the 5× stock reaction buffer and adding DTT to obtain a concentration of 3.0 mM. […] The final concentration of compound was 2× and 10% DMSO. DMSO was added to the rest of the master mix to increase the concentration to 10%. 10 μl of the master mix containing 10% DMSO was added to the rest of the wells on the plate except the 2nd column. […] FP was measured using Envision2100 (PerkinElmer Life Sciences). […]
pIC50: −log10 of the molar value.
measure.name: pIC50

• N#Cc1cncc(-c2ccc(OCCN3CCOCC3)cc2)c1Nc1cccc2[nH]ccc12 = 7.52
• CN(C)c1ccc(-c2cncc(C#N)c2Nc2cccnc2)cc1 = 5.31
• Cc1c(Nc2c(C#N)cncc2-c2cnc(N3CCOCC3)nc2)ccc2[nH]ccc12 = 7.08
• Cc1c(Nc2c(C#N)cncc2-c2ccc(CN3CCN(C)CC3)cc2)ccc2[nH]ccc12 = 8.30
• COc1ccc(-c2cncc(C#N)c2Nc2cccc3cc[nH]c23)cc1OC = 6.13
• Cc1c(Nc2c(C#N)cncc2-c2ccnn2C)ccc2[nH]ccc12 = 7.21
• COc1ccc(-c2cncc(C#N)c2Nc2ccc3[nH]ccc3c2)cc1OCCN1CCNCC1 = 6.70
• CN1CCN(CCOc2ccc(-c3cncc(C#N)c3Nc3ccc4[nH]ccc4c3)cc2)CC1 = 7.14

###

Listing of recorded IC50 by entry.
Target: human PKCθ full length enzyme (Homo sapiens)
Construct: human PKCθ full length enzyme (Panvera Cat# P2996); purchased Panvera P2996
Test: PKCθ IMAP assay (fluorescence polarization)
Format: biochemical
Details: human PKCθ full length enzyme, IMAP; average value; read-out: IC50 PKCθ IMAP
Procedure: The reaction buffer was prepared by diluting the 5× stock reaction buffer and adding DTT to obtain a concentration of 3.0 mM. […] The final concentration of compound was 2× and 10% DMSO. DMSO was added to the rest of the master mix to increase the concentration to 10%. 10 μl of the master mix containing 10% DMSO was added to the rest of the wells on the plate except the 2nd column. […] FP was measured using Envision2100 (PerkinElmer Life Sciences). […]
measure.name: IC50 (nM)

* COCCOc1ccc(-c2cncc(C#N)c2Nc2ccc3[nH]ccc3c2C)cc1OCCOC | 72
* N#Cc1cncc(-c2cc3cc(CNCCc4ccccc4)ccc3s2)c1Nc1cccc2[nH]ccc12 | 3
* COc1ccc(-c2cncc(C#N)c2Nc2ccc3c(ccn3C)c2C)cc1OC | 226
* Cc1c(Nc2c(C#N)cncc2-c2ccc(OCCNC3CCN(C)CC3)cc2)ccc2[nH]ccc12 | 3

###

Molecular target: purified recombinant full length PKC theta (Panvera, P2996) (Homo sapiens)
Construct: purified recombinant full length PKC theta (Panvera, P2996)
Sequence (Q04759 whole entry): as above
Assay: Radioactive kinase assay for inhibition of full length (FL) PKCθ
Settings: average value
measure.name: IC50 (nM)

* COCCOc1cc(-c2cncc(C#N)c2Nc2ccc3cc[nH]c3c2)ccc1OC | 7800
* COCCOc1ccc(-c2cncc(C#N)c2Nc2cccc3[nH]ccc23)cc1OC | 60
* COCCOc1cc(-c2cncc(C#N)c2Nc2ccc3[nH]ccc3c2)ccc1OC | 360
* COc1ccc(-c2cncc(C#N)c2Nc2cc(C)c3[nH]ccc3c2)cc1OC | 360
* N#Cc1cncc(-c2cccc(OCCCl)c2)c1Nc1ccc2cc[nH]c2c1 | 3830
* CN1CCN(C(=O)c2ccc(-c3cccc(-c4cncc(C#N)c4Nc4ccc5[nH]ccc5c4)c3)cc2)CC1 | 530
* N#Cc1cncc(-c2ccccc2-c2ccccc2Cl)c1Nc1ccc2[nH]ccc2c1 | 910
* N#Cc1cncc(-c2cccc(-c3ccc(C(=O)O)cc3)c2)c1Nc1ccc2[nH]ccc2c1 | 390

###

Target: human PKCθ full length enzyme (Homo sapiens, UniProt Q04759)
Construct: human PKCθ full length enzyme (Panvera Cat# P2996); purchased Panvera P2996
Test: PKCθ IMAP assay (fluorescence polarization)
Format: biochemical
Settings: human PKCθ full length enzyme, IMAP; average value; read-out: IC50 PKCθ IMAP
measure.name: IC50 (nM)

- COc1ccc(-c2cncc(C#N)c2Nc2cccc3[nH]ccc23)cc1OCCNCCc1c[nH]cn1 [Compound 339]: 10
- Cc1c(Nc2c(C#N)cncc2-c2cccc(-c3cccs3)c2)ccc2[nH]ccc12 [Compound 304]: 110
- Cc1c(Nc2c(C#N)cncc2-c2cc3cc(CN(C)C)ccc3o2)ccc2[nH]ccc12 [Compound 382]: 6
- Cc1ccc(-c2cccc(-c3cncc(C#N)c3Nc3ccc4[nH]ccc4c3)c2)cc1 [Compound 128]: 130
- COc1ccc(-c2cncc(C#N)c2Nc2cccc3[nH]ccc23)cc1OCCNCCCN1CCOCC1 [Compound 364]: 10
- Cc1c(Nc2c(C#N)cncc2-c2ccc(OCCN3CCC(CO)CC3)cc2)ccc2[nH]ccc12 [Compound 422]: 8
- Cc1c(Nc2c(C#N)cncc2-c2cc3cc(CNCc4ccccn4)ccc3o2)ccc2[nH]ccc12 [Compound 398]: 3

###

Target: human PKCθ full length enzyme (Homo sapiens, UniProt Q04759)
Construct: human PKCθ full length enzyme (Panvera Cat# P2996); purchased Panvera P2996
Experiment: PKCθ IMAP assay (fluorescence polarization)
Type: biochemical
Conditions: human PKCθ full length enzyme, IMAP; average value; read-out: IC50 PKCθ IMAP
pIC50: −log10 of the molar value.
Each entry gets FALSE if its pIC50 stays under 8, and TRUE if its pIC50 is 8 or above.

* COc1ccc(-c2cncc(C#N)c2Nc2ccc3[nH]ccc3c2C)cc1OCCNCCCc1ccccc1 [Compound 342] | TRUE
* CN(C)Cc1ccc2sc(-c3cncc(C#N)c3Nc3cccc4[nH]ccc34)cc2c1 [Compound 224] | TRUE
* N#Cc1cncc(-c2cc3cc(CNCc4ccccc4)ccc3s2)c1Nc1cccc2[nH]ccc12 [Compound 286] | TRUE
* CN(C)c1ccc(-c2cncc(C#N)c2Nc2ccc3[nH]ncc3c2)cc1 [Compound 292] | FALSE
* Cc1c(Nc2c(C#N)cncc2-c2ccc(OCCN3CCOCC3)cc2)ccc2[nH]ccc12 [Compound 351] | FALSE
* Cc1c(Nc2c(C#N)cncc2-c2cc3cc(CNCCO)ccc3o2)ccc2[nH]ccc12 [Compound 383] | TRUE
* COc1ccc(-c2cncc(C#N)c2Nc2ccc3[nH]ccc3c2)cc1OCCNCc1ccco1 [Compound 245] | FALSE
* Cc1c(Nc2c(C#N)cncc2-c2ccc(OCCN3CCN(C)CC3)cc2Cl)ccc2[nH]ccc12 [Compound 470] | FALSE
* CS(=O)(=O)Nc1cccc(-c2cncc(C#N)c2Nc2cccc3[nH]ccc23)c1 [Compound 256] | FALSE
* COc1ccc(-c2cncc(C#N)c2Nc2cccc3[nH]ccc23)cc1 [Compound 323] | FALSE
* COc1ccccc1-c1cncc(C#N)c1Nc1ccc2[nH]ccc2c1C [Compound 557] | FALSE
* N#Cc1cncc(-c2cccc(-c3ccccc3Cl)c2)c1Nc1ccc2[nH]ccc2c1 [Compound 129] | FALSE
* Cc1c(Nc2c(C#N)cncc2-c2cc3cc(CN(C)CC(O)CO)ccc3o2)ccc2[nH]ccc12 (centres unmarked) [Compound 386] | TRUE
